The reported numbers originate from patent US20090005257A1.

- experimental.target: T1, protein A (UniProt P38507 37-477)
- T1 construct: also called pA
- protocol.notes: phage ELISA on protein A, heated 80 C against unheated, titration (Section 5)
One threshold, 30%, splits the recorded % refolding (protein A binding retained after heating) values: lower ones are fulfilled, equal or higher ones are not fulfilled.

DP47 S30N/A33D (other, name in Kabat numbering, also called A33D/S30N) VH: EVQLLESGGGLVQPGGSLRLSCAASGFTFNSYDMSWVRQAPGKGLEWVSAISGSGGSTYYADSVKGRFTISRDNSKNTLYLQMNSLRAEDTAVYYCAKSYGAFDYWGQGTLVTVSS
fulfilled

Does HEL4 (other, Human VH dAb against hen egg lysozyme; also called dAb HEL4; Fd-myc-HEL4) VH: EVQLLESGGGLVQPGGSLRLSCAASGFRISDEDMGWVRQAPGKGLEWVSSIYGPSGSTYYADSVKGRFTISRDNSKNTLYLQMNSLRAEDTAVYYCASALEPLSEPLGFWGQGTLVTVSS have % refolding (protein A binding retained after heating) strictly under 30%? fulfilled

Does pA-C36 (other, Frameworks of DP47d, ranges as for HEL4; also called pA-36) VH: EVQLLESGGGLVQPGGSLRLSCAASGVNVSHDSMTWVRQAPGKGLEWVSAIRGPNGSTYYADSVKGRFTISRDNSKNTLYLQMNSLRAEDTAVYYCASGARHADTERPPSQQTMPFWGQGTLVTVSS have % refolding (protein A binding retained after heating) strictly under 30%? fulfilled

Does pA-C59 (other, Frameworks of DP47d, ranges as for HEL4) VH: EVQLLESGGGLVQPGGSLRLSCAASGDSISDDYMAWVRQAPGKGLEWVSSIDDKNGSTYYADSVKGRFTISRDNSKNTLYLQMNSLRAEDTAVYYCAGGDGQAHKVDYWGQGTLVTVSS have % refolding (protein A binding retained after heating) strictly under 30%? fulfilled

Does pA-C76 (other, Frameworks of DP47d, ranges as for HEL4) VH: EVQLLESGGGLVQPGGSLRLSCAASGDNVISDDMSWVRQAPGKGLEWVSTINGPSGSTYYADSVKGRFTISRDNSKNTLYLQMNSLRAEDTAVYYCAANGEDTDMLDMWGDRSAALKSWGQGTLVTVSS have % refolding (protein A binding retained after heating) strictly under 30%? not fulfilled

Does pA-C47 (other, Frameworks of DP47d, ranges as for HEL4) VH: EVQLLESGGGLVQPGGSLRLSCAASGYNITDENMAWVRQAPGKGLEWVSTIAADNGSTYYADSVKGRFTISRDNSKNTLYLQMNSLRAEDTAVYYCATTEAAGVEEDNVRSWGQGTLVTVSS have % refolding (protein A binding retained after heating) strictly under 30%? fulfilled

Does pA-C13 (other, From the library made by diversifying the CDR loops of DP47d; frameworks of DP47d, ranges as for HEL4; also called Clone 13) VH: EVQLLESGGGLVQPGGSLRLSCAASGDMVNDKDMSWVRQAPGKGLEWVSSISTENGSTYYADSVKGRFTISRDNSKNTLYLQMNSLRAEDTAVYYCAGVRDEVAMGENPDLSYWGQGTLVTVSS have % refolding (protein A binding retained after heating) strictly under 30%? not fulfilled
